Consider the following compounds and their measured composite z-score readings.
Test: anti-His antibody binders, primary screen, artefact control for SMM control protein annotation, biochemical, small-molecule microarray, 635 nm fluorescence (AID 1128);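 note: score merges feature fluorescence with signal-to-noise for each printed compound spot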
Conditions: anti-His Alexa647 antibody binding, higher = more signal
I'd appreciate a reply containing only the number, no unit.

// below: answered compounds
{"COMPOUND": "CCOC(=O)C1=CC[C@@H](c2ccccc2C(F)(F)F)N(S(=O)(=O)c2ccc(C)cc2)C1", "composite z-score": 1.62}
{"COMPOUND": "COc1cc(OC)c(C(O)C2C=CC3C(=O)N(c4ccccc4)C(=O)C3N2Nc2ccc(C#N)cc2)cc1Br (configuration not stated)", "composite z-score": 1.36}
{"COMPOUND": "CCOC(=CC(=O)OC)CC(O)c1cccc(Cl)c1 (configuration not stated)", "composite z-score": 1.83}
{"COMPOUND": "[N-]=[N+]=NCc1ccccc1C[C@@]1(C(=O)NCCN2CCOCC2)N=C(c2ccc(OCCCO)cc2)O[C@@H]1c1ccccc1N=[N+]=[N-]", "composite z-score": 1.4}
{"COMPOUND": "COC(=O)[C@@]1(Cc2ccc(F)cc2)[C@H]2c3cc(C(=O)N4CCCC4)n(CCc4c[nH]c5ccc(OC)cc45)c3C[C@H]2CN1C(=O)c1ccccc1", "composite z-score": 2.4}

For record [N-]=[N+]=NCc1ccccc1C[C@@]1(C(N)=O)N=C(c2ccc(OCCCO)cc2)O[C@@H]1c1ccccc1CN=[N+]=[N-] the listed composite z-score is 1.13

For record COCCOC(=O)N1C(=O)[C@@]2(c3cc(C#CCC(C(=O)OC)C(=O)OC)ccc31)[C@H](c1ccc(OCCO)cc1)N1[C@H](c3ccccc3)[C@H](c3ccccc3)OC(=O)[C@H]1[C@@H]2C(=O)N1CCN(c2ncccn2)CC1 the listed composite z-score is 1.94

====

Test: osmotic lysis modulators in infected erythrocytes, primary screen, PSAC antagonist project, cell-based, P. falciparum Indochina, OD700, 3 h (AID 1156)
Details: higher = more signal, called active from +8 up or from −8 down
Records here are stratified by z-score; strata: low = under -0.3, moderate = from -0.3 up to 0.8, high = 0.8 and over

{"MOLECULE": "COc1cc(CO)cc(I)c1O[C@H]1C=C(C(=O)NCCO)C[C@@H](NCc2ccccc2F)[C@@H]1O", "QUALITATIVE LABEL": "high"}
{"MOLECULE": "CCCCN1CC=CC23O[C@@H]4C=CCOC(=O)[C@@H]4[C@H]2C(=O)N(CCCO)[C@@H]3C1=O (some centres undefined)", "QUALITATIVE LABEL": "high"}
{"MOLECULE": "CC1CC/C=C\\[C@H]2OC34C=CCN(C(C)C)C(=O)[C@H]3N(CCCCCO)C(=O)[C@@H]4C2C(=O)O1 (some centres undefined)", "QUALITATIVE LABEL": "moderate"}

Input: The entry to classify is COc1ccc([Si](C)(C)[C@H]2[C@H](CCn3cc(CCO)nn3)O[C@@]3(C(=O)N(Cc4ccc(N5C(=O)c6cccc7cccc5c67)cc4)c4ccccc43)[C@@H]2C)cc1 ; which class holds it?
Output: moderate

Input: The entry to classify is CN(C)CCCCNC(=O)[C@H]1C[C@H]2C(=O)N[C@@H](CCCCN(C)C)C(=O)N2[C@H]1c1cccc(OCCO)c1 ; which class holds it?
Output: low

====

Biological target: Pro-neuregulin-1, membrane-bound isoform (Homo sapiens)
Assay: NRG1 binders on small-molecule microarrays, primary screen, psychiatric disease protein project, biochemical, small-molecule microarray, fluorescence 635/667 (AID 1075);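 note: score combines 667 nm spot fluorescence with signal to noise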
Conditions: NRG1 binding, 635 nm fluorescence, higher = more signal
Consider the following molecules and their measured composite z-score readings.
I'd appreciate a reply containing only the number, no unit.

// below: answered molecules
{"MOLECULE": "Cc1ccc(S[C@]2(C(=O)NCCN3CCOCC3)CC(=O)N(Cc3ccccc3C(F)(F)F)[C@@H]2c2ccc(CO)cc2I)cc1", "TESTED TARGET": "Pro-neuregulin-1, membrane-bound isoform (Homo sapiens)", "MEAS VALUE": 2.09}
{"MOLECULE": "CN1C(=O)C2C=CC(C(O)c3c(F)cccc3Cl)N(Nc3ccccc3)C2C1=O (stereo unspecified)", "TESTED TARGET": "Pro-neuregulin-1, membrane-bound isoform (Homo sapiens)", "MEAS VALUE": 1.84}
{"MOLECULE": "O=C1O[C@@H](c2ccccc2)[C@@H](c2ccccc2)N2[C@@H](c3ccc(O)cc3)[C@]3(C(=O)Nc4ccccc43)[C@@H](C(=O)Nc3nc4ccccc4s3)[C@H]12", "TESTED TARGET": "Pro-neuregulin-1, membrane-bound isoform (Homo sapiens)", "MEAS VALUE": 1.28}
{"MOLECULE": "[N-]=[N+]=Nc1ccccc1[C@H]1OC(c2ccc(OCCCO)cc2)=N[C@@]1(CCS(=O)(=O)c1ccccc1)C(=O)N1CCCCC1", "TESTED TARGET": "Pro-neuregulin-1, membrane-bound isoform (Homo sapiens)", "MEAS VALUE": 1.46}
{"MOLECULE": "CN1C(=O)[C@@]2(CCS(=O)(=O)c3ccccc3)N=C(c3ccc(OCCCO)cc3)O[C@H]2c2ccccc21", "TESTED TARGET": "Pro-neuregulin-1, membrane-bound isoform (Homo sapiens)", "MEAS VALUE": 1.59}

For record C=CC[C@@]1(C(=O)O)N=C(c2ccc(OCCCO)cc2)O[C@@H]1c1ccccc1 the listed composite z-score is 2.08

For record CC(=O)n1cc(C(O)C2C=CC3C(=O)N(c4ccccc4)C(=O)C3N2Nc2ccccc2)c2ccccc21 (stereo unspecified) the listed composite z-score is 0.837

====

Target: Pro-neuregulin-1, membrane-bound isoform (Homo sapiens) (UniProt Q02297)
Sequence (Q02297 whole entry, looked up, canonical isoform): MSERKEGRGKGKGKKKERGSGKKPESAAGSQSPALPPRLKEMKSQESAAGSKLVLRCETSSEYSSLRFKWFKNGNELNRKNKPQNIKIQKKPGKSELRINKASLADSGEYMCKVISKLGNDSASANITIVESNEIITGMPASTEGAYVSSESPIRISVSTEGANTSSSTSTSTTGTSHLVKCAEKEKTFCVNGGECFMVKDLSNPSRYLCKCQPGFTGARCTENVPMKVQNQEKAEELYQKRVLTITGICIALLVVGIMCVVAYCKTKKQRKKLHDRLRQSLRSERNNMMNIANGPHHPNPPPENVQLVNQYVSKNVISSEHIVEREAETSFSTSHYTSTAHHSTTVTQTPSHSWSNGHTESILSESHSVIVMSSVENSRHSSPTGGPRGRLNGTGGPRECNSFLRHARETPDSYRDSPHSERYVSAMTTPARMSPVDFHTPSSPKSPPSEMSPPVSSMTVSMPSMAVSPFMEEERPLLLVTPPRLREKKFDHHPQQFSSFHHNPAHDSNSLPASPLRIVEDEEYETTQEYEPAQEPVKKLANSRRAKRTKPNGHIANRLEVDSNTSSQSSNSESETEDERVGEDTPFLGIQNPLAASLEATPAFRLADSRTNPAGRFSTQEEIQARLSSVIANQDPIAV
Assay: NRG1 binders on small-molecule microarrays, primary screen, psychiatric disease protein project, biochemical, small-molecule microarray, fluorescence 635/667 (AID 1075);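 note: score combines 667 nm spot fluorescence with signal to noise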
Details: NRG1 binding, 635 nm fluorescence, higher = more signal
Cut-off 0.3 on composite z-score, inclusive. At or above means Condition met; below means Condition not met.

Please review the entries below; each comes with its answer.
{"MOLECULE": "COc1ccc([Si](C)(C)[C@@H]2[C@@H](CC(=O)N3CCC[C@H]3CO)O[C@]3(C(=O)N(Cc4ccc(N5C(=O)c6cccc7cccc5c67)cc4)c4ccccc43)[C@H]2C)cc1", "QUALITATIVE LABEL": "Condition met"}
{"MOLECULE": "CCOC(=CC(=O)OC)CC(O)c1cccc(Cl)c1 (configuration not stated)", "QUALITATIVE LABEL": "Condition met"}
{"MOLECULE": "NC(N)=NCc1cn(CCc2c[nH]c3ccccc23)nn1", "QUALITATIVE LABEL": "Condition met"}
{"MOLECULE": "COC(=O)C1(Cc2ccccc2)C=C2C(=C(C(C)C)C(=O)C2C)CN1 (configuration not stated)", "QUALITATIVE LABEL": "Condition met"}
{"MOLECULE": "CCCCN1CC=CC23O[C@@H]4C=CCOC(=O)[C@@H]4[C@H]2C(=O)N(C(C)CO)[C@@H]3C1=O (some centres not stated)", "QUALITATIVE LABEL": "Condition met"}
{"MOLECULE": "Cc1ccc(S[C@]2(C(=O)O)CC(=O)N(Cc3ccccc3Cl)[C@@H]2c2ccc(CO)cc2)cc1", "QUALITATIVE LABEL": "Condition not met"}
{"MOLECULE": "COc1cc(CO)cc(I)c1O[C@H]1C=C(C(=O)NCCO)C[C@@H](NCc2ccccc2F)[C@@H]1O", "QUALITATIVE LABEL": "Condition met"}
{"MOLECULE": "C=C(C(=O)CC[C@H](OC(=O)c1cccnc1)c1ccc(CO)o1)C(C)C", "QUALITATIVE LABEL": "Condition met"}
{"MOLECULE": "COc1cc2c(cc1O)C(C)N(Cc1cc3c(cc1Br)OCO3)CC2 (configuration not stated)", "QUALITATIVE LABEL": "Condition met"}
{"MOLECULE": "CC(C)CN1C(=O)[C@@]2(c3ccc([N+](=O)[O-])cc3)CC(=O)N(CC34CC5CC(CC(C5)C3)C4)[C@@H]2c2ccc(CO)cc21", "QUALITATIVE LABEL": "Condition not met"}

Input: Evaluate C=CC[C@H](OC(=O)Nc1ccc(OC)cc1)c1ccc(O)c2ccccc12 : composite z-score at minimum 0.3?
Output: Condition met

Input: Evaluate C=CCC(OC(C)=O)[C@@H]1[C@@H](N(Cc2cc3ccccc3o2)C(=O)c2ccc(C)cc2)c2cc(OCCCO)ccc2N1C(=O)Cc1ccc2ccccc2c1 (some centres not stated) : composite z-score at minimum 0.3?
Output: Condition not met

====

Target: Left-right determination factor 2 (Homo sapiens)
Assay: LEFTY2 binders on small-molecule microarrays, primary screen, biochemical, small-molecule microarray, 635 nm fluorescence scan (AID 1110)
Conditions: LEFTY2 binding, higher = more signal
MEASUREMENT LABEL: composite z-score
I'd appreciate a reply containing only the number, no unit.

{"COMPOUND": "COC(=O)C1(Cc2ccccc2)C=C2C(=C(c3ccccc3)C(=O)C2C)CN1 (stereo not drawn)", "TESTED TARGET": "Left-right determination factor 2 (Homo sapiens)", "MEAS VALUE": -0.871}
{"COMPOUND": "CN1C2C=C(CCCO)C(C3C(=O)N(C(N)=O)C(=O)C32)C1c1cccs1 (stereo not drawn)", "TESTED TARGET": "Left-right determination factor 2 (Homo sapiens)", "MEAS VALUE": 0.362}
{"COMPOUND": "C=C(/C(=C/C[C@@H](OC(=O)c1ccncc1)c1ccccc1OCCO)c1cc(C(=O)OC)ccc1OC)C(C)C", "TESTED TARGET": "Left-right determination factor 2 (Homo sapiens)", "MEAS VALUE": 0.788}

For record C=C(C(=O)CC[C@H](OC(C)=O)c1cccc(OCCO)c1)C(C)C the listed composite z-score is -0.728
